Kindly supply the reported IC50 values for the records listed here.
Target: Nav1.7 (or SCN9A) channel; HEK cells stably transfected with hSCN9A (Homo sapiens)
Construct: expressed in transfected cells
Assay: Nav1.7 block, PatchXpress 7000 automated whole-cell voltage clamp, estimated IC50 (EIC50)
Type: cell-based
Conditions: estimated IC50; hSCN9A HEK cells, PatchXpress platform; Examples 283-814
Give the number; nM is assumed, so skip it.

// lookup IC50 for N#Cc1ccc(Oc2cc(F)c(S(=O)(=O)Nc3ncc(Cl)s3)cc2F)c(-c2cn[nH]c2)c1 [Example 771]
240

// lookup IC50 for Cn1nccc1-c1cc(Cl)ccc1Oc1ccc(S(=O)(=O)Nc2ncc(C(F)(F)F)cn2)cc1C#N [Example 462]
51000

// lookup IC50 for Nc1n[nH]cc1-c1cc(Cl)ccc1Oc1cc(F)c(S(=O)(=O)Nc2ncns2)cc1F [Example 742]
3.6

###

Kindly supply the reported IC50 values for the records listed here.
Target: Nav1.7 (or SCN9A) channel; HEK cells stably transfected with hSCN9A (Homo sapiens)
Construct: expressed in transfected cells
Assay: Nav1.7 block, PatchXpress 7000 automated whole-cell voltage clamp, estimated IC50 (EIC50)
Type: cell-based
Conditions: PatchXpress platform; hSCN9A HEK cells held at V1/2 of inactivation; estimated IC50

// lookup IC50 for N#Cc1cc(S(=O)(=O)Nc2ccccc2)ccc1Oc1ccccc1-c1ccccc1
>10 µM

// lookup IC50 for N#Cc1cc(S(=O)(=O)Nc2ncco2)ccc1Oc1ccccc1-c1ccccc1
>10 µM

// lookup IC50 for COc1ccccc1-c1ccccc1Oc1ccc(S(=O)(=O)Nc2nccs2)c(F)c1 [Example 208]
0.13 µM

// lookup IC50 for N#Cc1cc(S(=O)(=O)Nc2ncns2)ccc1Oc1ccc(F)cc1C1CC1
>1 µM

// lookup IC50 for N#Cc1cc(S(=O)(=O)Nc2nccs2)ccc1Oc1cc(C2CC2)nn1-c1cc(F)ccc1F
1.08 µM

// lookup IC50 for N#Cc1cc(S(=O)(=O)Nc2nccs2)ccc1Oc1cc(C2CC2)nn1-c1ccccn1
>10 µM

###

Target: Nav1.7 (or SCN9A) channel; HEK cells stably transfected with hSCN9A (Homo sapiens)
Construct: expressed in transfected cells
Test: Nav1.7 block, PatchXpress 7000 automated whole-cell voltage clamp, estimated IC50 (EIC50)
Type: cell-based
Conditions: estimated IC50; hSCN9A HEK cells, PatchXpress platform; Examples 815-1040
Kindly supply the reported log10(IC50) values for the records listed here.
Friendly reminder: values = log10 of IC50, unit nM.

// lookup log10(IC50) for CN(C)c1n[nH]cc1-c1cc(Cl)ccc1Oc1cc(F)c(S(=O)(=O)Nc2cscn2)cc1Cl [Example 860]
2.23

// lookup log10(IC50) for N#Cc1cc(S(=O)(=O)Nc2nncs2)ccc1Oc1ccc(C(F)(F)F)cc1-c1ccnnc1 [Example 946]
2.36

// lookup log10(IC50) for Cc1cnccc1-c1cc(Cl)ccc1Oc1ccc(S(=O)(=O)Nc2ncns2)cc1C#N [Example 1011]
1.45

// lookup log10(IC50) for Cc1nnc(NS(=O)(=O)c2cc(Cl)c(Oc3ccc(Cl)cc3-c3ccnn3C)cc2F)s1 [Example 817]
2.48

// lookup log10(IC50) for N#Cc1cc(S(=O)(=O)Nc2ncns2)ccc1Oc1ccc(C(F)(F)F)cc1-c1cccc(CN2CCC2)c1 [Example 988]
-0.15

// lookup log10(IC50) for N#Cc1cc(S(=O)(=O)Nc2ncns2)ccc1Oc1ccc(OC(F)(F)F)cc1-c1ccnnc1 [Example 878]
0.76

// lookup log10(IC50) for O=S(=O)(Nc1ncns1)c1cc(F)c(Oc2ccc(Cl)cc2-c2ccnnc2)cc1F [Example 879]
0.85

// lookup log10(IC50) for N#Cc1cc(S(=O)(=O)Nc2ncns2)ccc1Oc1cc(F)c(OC(F)(F)F)cc1-c1ccnnc1 [Example 958]
0.77

// lookup log10(IC50) for N#Cc1cc(S(=O)(=O)Nc2ncns2)ccc1Oc1ccc(C(F)(F)F)cc1-c1ccnn1C1CNC1 [Example 935]
0.58

// lookup log10(IC50) for N#Cc1cc(S(=O)(=O)Nc2ncns2)ccc1Oc1ccc(Cl)cc1C1CNC1 [Example 906]
1.76

// lookup log10(IC50) for N#Cc1cc(S(=O)(=O)Nc2ncns2)ccc1Oc1ccc(C(F)(F)F)cc1-c1cccc(CN2CC[C@@H](O)C2)c1 [Example 987]
0.04

// lookup log10(IC50) for N#Cc1cc(S(=O)(=O)Nc2nncs2)ccc1Oc1ccc(Cl)cc1-c1cn[nH]c1 [Example 839]
2.11

// lookup log10(IC50) for N#Cc1cc(S(=O)(=O)Nc2ncns2)ccc1Oc1ccc(C(F)(F)F)cc1-c1ccncc1 [Example 960]
0.60

// lookup log10(IC50) for O=S(=O)(Nc1ncns1)c1ccc(Oc2ccc(Cl)cc2C2CCOCC2)c(F)c1 [Example 825]
2.28

// lookup log10(IC50) for O=S(=O)(Nc1nncs1)c1ccc(Oc2ccc(Cl)cc2-c2ccnnc2)c(C(F)(F)F)c1 [Example 1018]
2.36

// lookup log10(IC50) for Cn1nccc1-c1cc(Cl)ccc1Oc1ccc(S(=O)(=O)Nc2ncccn2)cc1C#N [Example 881]
2.41

// lookup log10(IC50) for N#Cc1cc(S(=O)(=O)Nc2nccs2)ccc1Oc1ccccc1-c1cncnc1 [Example 985]
3.36

// lookup log10(IC50) for O=C(c1cccc(-c2cc(Cl)ccc2Oc2cc(F)c(S(=O)(=O)Nc3ncns3)cc2Cl)c1)N1CC(O)C1 [Example 824]
0.67

###

Molecular target: Nav1.7 (or SCN9A) channel; HEK cells stably transfected with hSCN9A (Homo sapiens)
Construct: expressed in transfected cells
Assay: Nav1.7 block, PatchXpress 7000 automated whole-cell voltage clamp, estimated IC50 (EIC50)
Format: cell-based
Details: estimated IC50; hSCN9A HEK cells, PatchXpress platform; Examples 283-814
reported metric: IC50 (nM)
Give the number; nM is assumed, so skip it.

# returns recorded IC50 (system: Nav1.7 (or SCN9A) channel; HEK cells stably transfected with hSCN9A (Homo sapiens)) for N#Cc1cc(S(=O)(=O)Nc2ncc(Cl)s2)ccc1Oc1ccc(C(F)(F)F)cc1-c1cn[nH]c1
53

# returns recorded IC50 (system: Nav1.7 (or SCN9A) channel; HEK cells stably transfected with hSCN9A (Homo sapiens)) for N#Cc1cc(S(=O)(=O)Nc2ncns2)ccc1Oc1ccc(Cl)cc1-c1ccnc(N2CCNCC2)c1
2.7

# returns recorded IC50 (system: Nav1.7 (or SCN9A) channel; HEK cells stably transfected with hSCN9A (Homo sapiens)) for Cn1nccc1-c1ccc(Oc2ccc(S(=O)(=O)Nc3nccs3)cc2C#N)cc1Cl
1800

###

Biological target: Nav1.7 (or SCN9A) channel; HEK cells stably transfected with hSCN9A (Homo sapiens, UniProt Q15858)
Construct: expressed in transfected cells
Sequence (Q15858 whole entry): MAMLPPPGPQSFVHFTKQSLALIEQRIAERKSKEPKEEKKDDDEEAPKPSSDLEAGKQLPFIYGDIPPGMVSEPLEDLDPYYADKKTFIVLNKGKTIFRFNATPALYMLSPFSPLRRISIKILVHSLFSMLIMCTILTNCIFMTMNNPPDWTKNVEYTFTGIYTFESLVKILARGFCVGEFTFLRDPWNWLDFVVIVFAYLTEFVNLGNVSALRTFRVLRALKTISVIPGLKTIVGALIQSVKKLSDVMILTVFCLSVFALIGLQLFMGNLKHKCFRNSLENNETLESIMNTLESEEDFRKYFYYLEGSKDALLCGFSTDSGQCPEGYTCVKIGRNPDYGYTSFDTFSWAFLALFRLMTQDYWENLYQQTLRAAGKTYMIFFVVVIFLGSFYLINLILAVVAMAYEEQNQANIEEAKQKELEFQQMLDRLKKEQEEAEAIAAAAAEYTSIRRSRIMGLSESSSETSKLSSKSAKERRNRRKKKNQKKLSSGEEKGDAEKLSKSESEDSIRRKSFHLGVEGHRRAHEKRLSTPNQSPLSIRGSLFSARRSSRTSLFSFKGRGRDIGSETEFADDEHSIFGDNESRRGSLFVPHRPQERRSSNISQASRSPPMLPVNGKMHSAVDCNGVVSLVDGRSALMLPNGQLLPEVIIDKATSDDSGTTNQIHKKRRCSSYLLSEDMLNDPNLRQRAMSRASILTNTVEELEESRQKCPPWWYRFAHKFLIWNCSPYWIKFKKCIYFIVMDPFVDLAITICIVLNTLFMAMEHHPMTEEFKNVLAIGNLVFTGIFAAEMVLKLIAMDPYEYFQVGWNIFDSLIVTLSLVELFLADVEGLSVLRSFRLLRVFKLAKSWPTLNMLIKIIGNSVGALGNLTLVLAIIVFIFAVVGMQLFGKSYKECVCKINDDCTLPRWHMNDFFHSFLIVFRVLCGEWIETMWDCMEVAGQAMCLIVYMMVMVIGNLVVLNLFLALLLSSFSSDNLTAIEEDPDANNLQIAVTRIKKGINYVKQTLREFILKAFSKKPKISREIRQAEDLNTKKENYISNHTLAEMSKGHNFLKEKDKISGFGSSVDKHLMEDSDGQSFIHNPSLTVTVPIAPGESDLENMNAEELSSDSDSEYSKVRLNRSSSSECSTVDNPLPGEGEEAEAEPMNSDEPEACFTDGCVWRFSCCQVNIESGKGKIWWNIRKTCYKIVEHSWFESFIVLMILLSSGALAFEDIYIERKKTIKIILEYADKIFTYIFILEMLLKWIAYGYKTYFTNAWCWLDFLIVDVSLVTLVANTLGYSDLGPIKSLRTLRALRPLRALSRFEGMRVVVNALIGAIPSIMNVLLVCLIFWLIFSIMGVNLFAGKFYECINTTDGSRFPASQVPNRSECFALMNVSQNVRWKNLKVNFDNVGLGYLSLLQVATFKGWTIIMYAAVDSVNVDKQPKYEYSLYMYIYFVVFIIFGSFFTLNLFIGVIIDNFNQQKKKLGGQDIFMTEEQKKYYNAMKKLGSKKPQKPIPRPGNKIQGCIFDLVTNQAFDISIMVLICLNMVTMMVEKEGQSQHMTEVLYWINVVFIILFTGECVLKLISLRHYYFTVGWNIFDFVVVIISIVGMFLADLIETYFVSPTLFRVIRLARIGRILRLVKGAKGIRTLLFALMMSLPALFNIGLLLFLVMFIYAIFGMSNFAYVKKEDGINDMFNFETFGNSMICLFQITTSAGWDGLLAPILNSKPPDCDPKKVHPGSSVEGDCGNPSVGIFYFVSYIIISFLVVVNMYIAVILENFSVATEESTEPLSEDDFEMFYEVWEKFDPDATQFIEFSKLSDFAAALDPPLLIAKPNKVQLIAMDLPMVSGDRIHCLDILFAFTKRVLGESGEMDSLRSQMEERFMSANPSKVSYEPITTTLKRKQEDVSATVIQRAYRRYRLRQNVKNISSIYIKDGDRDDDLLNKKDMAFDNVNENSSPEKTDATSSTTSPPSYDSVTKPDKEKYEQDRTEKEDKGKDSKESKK
Assay: Nav1.7 block, PatchXpress 7000 automated whole-cell voltage clamp, estimated IC50 (EIC50)
Assay type: cell-based
Settings: estimated IC50; hSCN9A HEK cells, PatchXpress platform; Examples 815-1040
reported metric: IC50 (nM)
Give the number; nM is assumed, so skip it.

// lookup IC50 for Nc1cc(-c2cc(Cl)ccc2Oc2cc(F)c(S(=O)(=O)Nc3ncccn3)cc2Cl)ccn1
67

// lookup IC50 for CN1CC(n2nccc2-c2cc(OC(F)(F)F)ccc2Oc2cc(F)c(S(=O)(=O)Nc3nncs3)cc2Cl)C1
2.1

// lookup IC50 for CN1CC(n2nccc2-c2cc(Cl)ccc2Oc2ncc(S(=O)(=O)Nc3ncns3)cc2Cl)C1
2000

// lookup IC50 for Cc1ncccc1-c1cc(Cl)ccc1Oc1ccc(S(=O)(=O)Nc2ncns2)cc1C#N
21

// lookup IC50 for Cn1nccc1-c1cc(Cl)ccc1Oc1ccc(S(=O)(=O)Nc2cccnn2)cc1C#N
1600

// lookup IC50 for O=S(=O)(Nc1ncns1)c1cc(F)c(Oc2cc(Cl)c(F)cc2-c2ccnnc2)cc1F
19

// lookup IC50 for N#Cc1cc(S(=O)(=O)Nc2nncs2)ccc1Oc1ccc(Cl)cc1-c1ccnnc1
420

// lookup IC50 for O=S(=O)(Nc1nncs1)c1cc(Cl)c(Oc2ccc(Cl)cc2-c2ccnnc2)cc1F
34

// lookup IC50 for Nc1cc(-c2cc(C(F)(F)F)ccc2Oc2ccc(S(=O)(=O)Nc3ccncn3)cc2Cl)ccn1
4.8

// lookup IC50 for Nc1n[nH]cc1-c1cc(Cl)ccc1Oc1cc(F)c(S(=O)(=O)Nc2ncccn2)cc1Cl
22

// lookup IC50 for O=S(=O)(Nc1cscn1)c1cc(F)c(Oc2ccc(C(F)(F)F)cc2-c2ccnnc2)cc1F
240

// lookup IC50 for COC(=O)N1CC(c2cc(Cl)ccc2Oc2ccc(S(=O)(=O)Nc3nccs3)cc2C#N)C1
1300

// lookup IC50 for O=C(c1cccc(-c2cc(Cl)ccc2Oc2ccc(S(=O)(=O)Nc3ccncn3)cc2Cl)c1)N1CCC1
17

// lookup IC50 for O=C(c1cccc(-c2cc(Cl)ccc2Oc2cc(F)c(S(=O)(=O)Nc3cscn3)cc2Cl)c1)N1CCC1
22

// lookup IC50 for O=S(=O)(Nc1nncs1)c1cc(Cl)c(Oc2ccc(OC(F)(F)F)cc2-c2ccnnc2)cc1F
75

// lookup IC50 for CSc1nc(NS(=O)(=O)c2ccc(Oc3ccc(Cl)cc3-c3ccnn3C)c(C#N)c2)ns1
3800

// lookup IC50 for O=C(c1cccc(-c2cc(Cl)ccc2Oc2cc(F)c(S(=O)(=O)Nc3ncns3)cc2F)c1)N1CCC1
4.2

// lookup IC50 for O=S(=O)(Nc1nncs1)c1cc(Cl)c(Oc2cc(OC(F)(F)F)c(F)cc2-c2ccnnc2)cc1F
25

// lookup IC50 for N#Cc1cc(S(=O)(=O)Nc2cscn2)ccc1Oc1ccc(OC(F)(F)F)cc1-c1ccnn1C1CNC1
9.9

// lookup IC50 for O=S(=O)(Nc1ncns1)c1ccc(Oc2cc(Cl)c(F)cc2-c2ccnnc2)c(F)c1
53

// lookup IC50 for N#Cc1cc(S(=O)(=O)Nc2ncns2)ccc1Oc1cc(F)c(C(F)(F)F)cc1-c1ccnnc1
3.8

// lookup IC50 for CN1CC(n2nccc2-c2cc(Cl)ccc2Oc2cc(F)c(S(=O)(=O)Nc3ncccn3)cc2Cl)C1
270
